test system: mouse breast cancer cell line 4T1; test: Subcutaneously transplanted 4T1 tumor growth inhibition; format: in vivo, BALB/c ordinary mice; conditions: 4T1 in BALB/c mice; 10 mg/kg intraperitoneal once every 2 days for 20 days
Assign class by Average inhibitory rate of tumor: not lower than 80% means condition met; lower than 80% means condition not met.

Study these solved cases before continuing.
compound="Nc1nc2c(ncn2[C@@H]2O[C@@H]3COP(=O)([O-])O[C@H]4[C@@H](O)[C@H](n5cnc6c(N)ncnc65)O[C@@H]4COP(=O)([O-])O[C@@H]2[C@@H]3O)c(=O)[nH]1.[Zn+2] [[Zn(cGAMP)], zinc cyclic dinucleotide]" answer_label="condition met"
compound="Nc1nc2c(ncn2[C@@H]2O[C@@H]3COP(=O)([O-])O[C@H]4[C@@H](O)[C@H](n5cnc6c(N)ncnc65)O[C@@H]4COP(=O)([O-])O[C@@H]2[C@@H]3O)c(=O)[nH]1.[Li+].[Li+] [[Li2(cGAMP)], lithium cyclic dinucleotide]" answer_label="condition not met"
compound="Nc1nc2c(ncn2[C@@H]2O[C@@H]3COP(=O)(O)O[C@H]4[C@@H](O)[C@H](n5cnc6c(N)ncnc65)O[C@@H]4COP(=O)(O)O[C@@H]2[C@@H]3O)c(=O)[nH]1 [cGAMP, 2′3′-cGAMP, reference compound]" answer_label="condition not met"
compound="Nc1nc2c(ncn2[C@@H]2O[C@@H]3COP(=O)([O-])O[C@H]4[C@@H](O)[C@H](n5cnc6c(N)ncnc65)O[C@@H]4COP(=O)([O-])O[C@@H]2[C@@H]3O)c(=O)[nH]1.[Mg+2] [[Mg(cGAMP)], magnesium cyclic dinucleotide]" answer_label="condition not met"
compound="Nc1nc2c(ncn2C2OC3COP(=O)([O-])OC4C(COP(=O)([O-])OC2C3O)OC(n2cnc3c(N)ncnc32)C4O)c(=O)[nH]1.[Fe+2] (stereo not drawn) [[Fe(cGAMP)], ferrous cyclic dinucleotide]" answer_label="condition met"

Shifting focus to the compound that follows.
Ask | API: above_or_equal(metric=Average inhibitory rate of tumor, cutoff=80%) for item Nc1nc2c(ncn2C2OC3COP(=O)([O-])OC4C(COP(=O)([O-])OC2C3O)OC(n2cnc3c(N)ncnc32)C4O)c(=O)[nH]1.[Mn+2] (stereo not drawn) [[Mn(cGAMP)], manganese cyclic dinucleotide]
Reply | condition met

* * *

system: ICR mice with ischemic cerebrovascular injury; experiment: MCAO ischemic cerebrovascular injury model, Zea longa behavioral score; format: in vivo; conditions: 10 mg/kg intraperitoneal; Zea longa 5-point score, 7 h after operation
Quantity kind: Score (7 h after operation)
Give bare numbers.

Worked cases, Score (7 h after operation) given:
molecule="Nc1nc2c(ncn2[C@@H]2O[C@@H]3COP(=O)([O-])O[C@H]4[C@@H](O)[C@H](n5cnc6c(N)ncnc65)O[C@@H]4COP(=O)([O-])O[C@@H]2[C@@H]3O)c(=O)[nH]1.[Li+].[Li+] [[Li2(cGAMP)], lithium cyclic dinucleotide]" recorded_result=1.49
molecule="Nc1nc2c(ncn2[C@@H]2O[C@@H]3COP(=O)(O)O[C@H]4[C@@H](O)[C@H](n5cnc6c(N)ncnc65)O[C@@H]4COP(=O)(O)O[C@@H]2[C@@H]3O)c(=O)[nH]1 [cGAMP, 2′3′-cGAMP, reference compound]" recorded_result=1.67
molecule="Nc1nc2c(ncn2[C@@H]2O[C@@H]3COP(=O)([O-])O[C@H]4[C@@H](O)[C@H](n5cnc6c(N)ncnc65)O[C@@H]4COP(=O)([O-])O[C@@H]2[C@@H]3O)c(=O)[nH]1.[Zn+2] [[Zn(cGAMP)], zinc cyclic dinucleotide]" recorded_result=1.31
molecule="Nc1nc2c(ncn2C2OC3COP(=O)([O-])OC4C(COP(=O)([O-])OC2C3O)OC(n2cnc3c(N)ncnc32)C4O)c(=O)[nH]1.[Mn+2] (stereo not drawn) [[Mn(cGAMP)], manganese cyclic dinucleotide]" recorded_result=1.38
molecule="Nc1nc2c(ncn2C2OC3COP(=O)([O-])OC4C(COP(=O)([O-])OC2C3O)OC(n2cnc3c(N)ncnc32)C4O)c(=O)[nH]1.[Fe+2] (stereo not drawn) [[Fe(cGAMP)], ferrous cyclic dinucleotide]" recorded_result=1.41

Moving on to the next molecule.
Ask | Answer with reported Score (7 h after operation) of Nc1nc2c(ncn2[C@@H]2O[C@@H]3COP(=O)([O-])O[C@H]4[C@@H](O)[C@H](n5cnc6c(N)ncnc65)O[C@@H]4COP(=O)([O-])O[C@@H]2[C@@H]3O)c(=O)[nH]1.[Mg+2] [[Mg(cGAMP)], magnesium cyclic dinucleotide]
Reply | 1.09

* * *

tested on: IRI mice (male SD mice); assay: Cerebral ischemia-reperfusion injury (IRI) model, TTC dyeing; format: in vivo; conditions: 2 h ischemia, 24 h reperfusion; caudal vein injection 5 mg/kg (Edaravone 6 mg/kg) after 30 min ischemia
Quantity kind: Average value of percentage of cerebral ischemic area (%)
Numbers only, in %.

compound="CC1=NN(c2ccccc2)C(=O)C1 [Edaravone, reference compound]" unit_descriptor=% recorded_result=28.97

Dear reader, for each entry below, please note its Average value of percentage of cerebral ischemic area.
1. Nc1nc2c(ncn2[C@@H]2O[C@@H]3COP(=O)([O-])O[C@H]4[C@@H](O)[C@H](n5cnc6c(N)ncnc65)O[C@@H]4COP(=O)([O-])O[C@@H]2[C@@H]3O)c(=O)[nH]1.[Mg+2] [[Mg(cGAMP)], magnesium cyclic dinucleotide]
2. Nc1nc2c(ncn2C2OC3COP(=O)([O-])OC4C(COP(=O)([O-])OC2C3O)OC(n2cnc3c(N)ncnc32)C4O)c(=O)[nH]1.[Fe+2] (stereo not shown) [[Fe(cGAMP)], ferrous cyclic dinucleotide]
3. Nc1nc2c(ncn2[C@@H]2O[C@@H]3COP(=O)(O)O[C@H]4[C@@H](O)[C@H](n5cnc6c(N)ncnc65)O[C@@H]4COP(=O)(O)O[C@@H]2[C@@H]3O)c(=O)[nH]1 [cGAMP, 2′3′-cGAMP, reference compound]
4. Nc1nc2c(ncn2C2OC3COP(=O)([O-])OC4C(COP(=O)([O-])OC2C3O)OC(n2cnc3c(N)ncnc32)C4O)c(=O)[nH]1.[Mn+2] (stereo not shown) [[Mn(cGAMP)], manganese cyclic dinucleotide]
5. Nc1nc2c(ncn2[C@@H]2O[C@@H]3COP(=O)([O-])O[C@H]4[C@@H](O)[C@H](n5cnc6c(N)ncnc65)O[C@@H]4COP(=O)([O-])O[C@@H]2[C@@H]3O)c(=O)[nH]1.[Li+].[Li+] [[Li2(cGAMP)], lithium cyclic dinucleotide]
6. Nc1nc2c(ncn2[C@@H]2O[C@@H]3COP(=O)([O-])O[C@H]4[C@@H](O)[C@H](n5cnc6c(N)ncnc65)O[C@@H]4COP(=O)([O-])O[C@@H]2[C@@H]3O)c(=O)[nH]1.[Zn+2] [[Zn(cGAMP)], zinc cyclic dinucleotide]

Reply |
1. 18.16
2. 26.78
3. 26.86
4. 25.56
5. 25.25
6. 23.52

* * *

test system: Dendritic cells (DCs) (CD40\CD80\CD86\MHCII); test: Flow cytometry of dendritic cell activation markers after immunization; assay type: in vivo, C57BL/6 ordinary mice; settings: fluorescence intensity (MFI), after 14 days of immunization
Quick rule for you: Spleen CD40 at 200 or higher means 1 (yes), lower means 0 (no).

Look over these answered cases.
compound="Nc1nc2c(ncn2[C@@H]2O[C@@H]3COP(=O)([O-])O[C@H]4[C@@H](O)[C@H](n5cnc6c(N)ncnc65)O[C@@H]4COP(=O)([O-])O[C@@H]2[C@@H]3O)c(=O)[nH]1.[Zn+2] [[Zn(cGAMP)], zinc cyclic dinucleotide]" measurement_target="Dendritic cells (DCs) (CD40\\CD80\\CD86\\MHCII)" answer_label="1 (yes)"
compound="Nc1nc2c(ncn2C2OC3COP(=O)([O-])OC4C(COP(=O)([O-])OC2C3O)OC(n2cnc3c(N)ncnc32)C4O)c(=O)[nH]1.[Fe+2] (stereo not drawn) [[Fe(cGAMP)], ferrous cyclic dinucleotide]" measurement_target="Dendritic cells (DCs) (CD40\\CD80\\CD86\\MHCII)" answer_label="1 (yes)"
compound="Nc1nc2c(ncn2[C@@H]2O[C@@H]3COP(=O)([O-])O[C@H]4[C@@H](O)[C@H](n5cnc6c(N)ncnc65)O[C@@H]4COP(=O)([O-])O[C@@H]2[C@@H]3O)c(=O)[nH]1.[Mg+2] [[Mg(cGAMP)], magnesium cyclic dinucleotide]" measurement_target="Dendritic cells (DCs) (CD40\\CD80\\CD86\\MHCII)" answer_label="0 (no)"
compound="Nc1nc2c(ncn2C2OC3COP(=O)([O-])OC4C(COP(=O)([O-])OC2C3O)OC(n2cnc3c(N)ncnc32)C4O)c(=O)[nH]1.[Mn+2] (stereo not drawn) [[Mn(cGAMP)], manganese cyclic dinucleotide]" measurement_target="Dendritic cells (DCs) (CD40\\CD80\\CD86\\MHCII)" answer_label="1 (yes)"
compound="Nc1nc2c(ncn2[C@@H]2O[C@@H]3COP(=O)(O)O[C@H]4[C@@H](O)[C@H](n5cnc6c(N)ncnc65)O[C@@H]4COP(=O)(O)O[C@@H]2[C@@H]3O)c(=O)[nH]1 [cGAMP, 2′3′-cGAMP, reference compound]" measurement_target="Dendritic cells (DCs) (CD40\\CD80\\CD86\\MHCII)" answer_label="0 (no)"

Next item in the queue.
Ask | Quick check: does Nc1nc2c(ncn2[C@@H]2O[C@@H]3COP(=O)([O-])O[C@H]4[C@@H](O)[C@H](n5cnc6c(N)ncnc65)O[C@@H]4COP(=O)([O-])O[C@@H]2[C@@H]3O)c(=O)[nH]1.[Li+].[Li+] [[Li2(cGAMP)], lithium cyclic dinucleotide] have Spleen CD40 greater than or equal to 200?
Reply | 0 (no)
